tested on: MCF-7 breast cancer cells; assay: MTT metabolism assay; assay type: cell-based, human; details: MCF-7, 72 h (Table 6); read-out: IC50 for cell viability measured by MTT assay in MCF-7 human breast cancer cells
pIC50: −log10 of the molar value.

# compound, pIC50
data = [
    ("O=C(O)CSc1cc(NS(=O)(=O)c2cccs2)c2ccccc2c1O [Compound 10a]", 4.96),
]

###

Form field: IC50 (one value per entry).
Test system: LNCaP prostate cancer cells
Test: MTT metabolism assay
Assay type: cell-based
Conditions: Homo sapiens, 24 h, mean ± SD of 3 to 5 experiments, read-out: IC50 for cell viability measured by MTT assay
Procedure: Cells were plated in 96-well plates in 100 μl medium and allowed to attach overnight. […] Media was aspirated after 24 or 72 hours and replaced with 100 μl complete media containing 1 mg/ml MTT and incubated for three hours at 37° C. in 5% CO2 humidified incubator. Media was then aspirated and DMSO was added. Cells were incubated for 10 min at room temperature while shaking, and the absorbance was determined at 540 nm using a μQuant spectrophotometric plate reader (Bio-TEK, Winooski, Vt.).

# compound, value-relation-sign, IC50 (µM)
rows = [
    ("O=C1C(Cl)=C(Nc2ccc(S(=O)(=O)Nc3ccccn3)cc2)C(=O)c2ccccc21", "=", 14),
    ("CC(C)C[C@H](NC(=O)[C@H](Cc1ccccc1)NC(=O)c1cnccn1)B(O)O [Bortezomib, reference compound]", ">", 30),
]
